assay: Maximum solubility in extracellular oocyte recording solution; type: physicochemical; settings: aqueous buffer
Assay endpoint: solubility (µM)
Numbers only here, please. The scale is µM.

(Q) Quick one: solubility of `O=C(NNC(=O)c1ccc(CNS(=O)(=O)c2ccc(F)c(Cl)c2)cc1)c1ccccc1` ?
(A) 18
